Experiment: Clinical pharmacokinetics of Compound 1 monotherapy, Phase 1/2, advanced malignancies
Assay type: in vivo, human
Conditions: human, plasma, oral, 2 mg, 2 mg QD, linear PK extrapolation from 12 mg QD; read-out: estimated steady-state AUC0-24
Method: The clinical PK of Compound 1 in participants with advanced malignancies (solid and hematologic malignancies) were evaluated in a Phase 1/2, open-label, dose-escalation/dose-expansion, safety and tolerability study. Participants received continuous QD doses of Compound 1. As of the data cutoff date (23 Sep. 2019), 25, 101, and 8 participants who received 8 mg, 12 mg, and 16 mg, respectively, across Part 1 and Part 2 (Compound 1 treated as monotherapy) have been assessed for PK. […]
value type: AUC(0-t) (µM·h)
Give bare numbers, in µM·h.

Supply recorded AUC(0-t) for CN1C(=O)C(C)(C)Oc2c(-c3cn(C)c(=O)c4[nH]ccc34)cc(S(C)(=O)=O)cc21 [Compound 1] here. 0.457

====

assay: Clinical pharmacokinetics of Compound 1 monotherapy, Phase 1/2, advanced malignancies; assay type: in vivo, human; settings: human, plasma, oral, 16 mg, 16 mg QD, cycle 1 day 1, N = 7; read-out: Cmax, geometric mean (CV %)
value type: Cmax (µM)
Give bare numbers, in µM.

Supply recorded Cmax for CN1C(=O)C(C)(C)Oc2c(-c3cn(C)c(=O)c4[nH]ccc34)cc(S(C)(=O)=O)cc21 [Compound 1] here. 0.329

====

Assay: Clinical pharmacokinetics of Compound 1 monotherapy, Phase 1/2, advanced malignancies
Format: in vivo, human
Details: human, plasma, oral, 4 mg, 4 mg QD, linear PK extrapolation from 12 mg QD; read-out: estimated steady-state AUC0-24
Method: The clinical PK of Compound 1 in participants with advanced malignancies (solid and hematologic malignancies) were evaluated in a Phase 1/2, open-label, dose-escalation/dose-expansion, safety and tolerability study. Participants received continuous QD doses of Compound 1. As of the data cutoff date (23 Sep. 2019), 25, 101, and 8 participants who received 8 mg, 12 mg, and 16 mg, respectively, across Part 1 and Part 2 (Compound 1 treated as monotherapy) have been assessed for PK. […]
value type: AUC(0-t) (µM·h)
One number for each entry, in µM·h.

Supply recorded AUC(0-t) for `CN1C(=O)C(C)(C)Oc2c(-c3cn(C)c(=O)c4[nH]ccc34)cc(S(C)(=O)=O)cc21` here. 0.913

====

assay: Treatment-emergent adverse events and exposure-safety analysis, Compound 1 monotherapy; assay type: in vivo, human; details: FIG. 8, monotherapy 8-16 mg QD
value type: AUCss,0-24, fourth quartile (µM·h)
One number for each entry, in µM·h.

Supply recorded AUCss,0-24, fourth quartile for `CN1C(=O)C(C)(C)Oc2c(-c3cn(C)c(=O)c4[nH]ccc34)cc(S(C)(=O)=O)cc21` here. 3.61

====

test: Clinical pharmacokinetics of Compound 1 monotherapy, Phase 1/2, advanced malignancies; type: in vivo, human; conditions: human, plasma, oral, 8 mg, 8 mg QD, cycle 1 day 1, N = 12; read-out: AUClast, geometric mean (CV %)
value type: AUC(0-t)
Write down the value, and be sure its unit follows.

Supply recorded AUC(0-t) for `CN1C(=O)C(C)(C)Oc2c(-c3cn(C)c(=O)c4[nH]ccc34)cc(S(C)(=O)=O)cc21` here. 2.09 µM·h

====

assay: Clinical pharmacokinetics of Compound 1 monotherapy, Phase 1/2, advanced malignancies; format: in vivo, human; conditions: human, plasma, oral; multiple-dose, fasted state, 8 to 16 mg QD; read-out: median Tmax
value type: Tmax

Supply recorded Tmax for `CN1C(=O)C(C)(C)Oc2c(-c3cn(C)c(=O)c4[nH]ccc34)cc(S(C)(=O)=O)cc21` here. 1 to 2 h
